# Assayed System: GSK3
# Measurement Protocol: Kinase specificity, GSK3
# Assay Context: 100 μM ATP
pIC50: −log10 of the molar value.
Parameter Measured: pIC50

Give the value of pIC50 reported for the following: COC(=O)[C@@]1(O)C[C@H]2O[C@]1(C)n1c3ccccc3c3c4c(c5c6ccccc6n2c5c31)C(=O)NC4 [Compound K252a, K252a, reference compound]
< 5.00

###

# Assayed System: PKA
# Measurement Protocol: Kinase specificity, PKA
# Assay Context: 100 μM ATP
Parameter Measured: pIC50
Bear in mind: pIC50 is minus log10 of a mol/L concentration; give just that figure.

Under PKA: report pIC50 of COC(=O)[C@@]1(O)C[C@H]2O[C@]1(C)n1c3ccccc3c3c4c(c5c6ccccc6n2c5c31)C(=O)NC4 [Compound K252a, K252a, reference compound] .
5.47

###

# Assayed System: wildtype human LRRK2 (Homo sapiens)
# Construct: human LRRK2 protein fragment encompassing amino acids 1326 to 2527; GST; made in house
# Measurement Protocol: Adapta assay, inhibition of wildtype human LRRK2 kinase fragment with LRRKtide
# Format: biochemical
# Assay Context: 100 μM ATP; read-out: LRRK2
Parameter Measured: IC50 (nM)
# output: bare number, implied unit nM

Give the value of IC50 reported for the following: CNC(=O)[C@@]1(N)CC2OC1(C)n1c3ccccc3c3c4c(c5c6cc(Br)ccc6n2c5c31)C(=O)NC4 (some centres unmarked)
1.2

Give the value of IC50 reported for the following: CNC(=O)C1(N)CC2OC1(C)n1c3ccc(Br)cc3c3c4c(c5c6cc(Br)ccc6n2c5c31)C(=O)NC4 (centres unmarked)
1.5

Give the value of IC50 reported for the following: COC(=O)[C@@]1(N)CC2OC1(C)n1c3ccccc3c3c4c(c5c6ccccc6n2c5c31)C(=O)NC4 (some centres unmarked)
1

Give the value of IC50 reported for the following: CC12OC(C[C@]1(N)CO)n1c3ccccc3c3c4c(c5c6ccccc6n2c5c31)CNC4=O (some centres unmarked)
1

Give the value of IC50 reported for the following: CNC(=O)[C@@]1(N)CC2OC1(C)n1c3ccccc3c3c4c(c5c6ccccc6n2c5c31)C(=O)NC4 (some centres unmarked)
1.1

###

# Measurement Protocol: Lethal plasma concentration after single dosing
# Format: in vivo
# Assay Context: read-out: LC50 as plasma concentration
Parameter Measured: LC50

Give the value of LC50 reported for the following: CN[C@@H]1C[C@H]2O[C@@](C)([C@@H]1OC)n1c3ccccc3c3c4c(c5c6ccccc6n2c5c31)C(=O)NC4
200 to 300 nM

###

# Assayed System: wildtype human LRRK2 (Homo sapiens, UniProt Q5S007)
# Construct: human LRRK2 protein fragment encompassing amino acids 1326 to 2527; GST; made in house
# Sequence (Q5S007 1326-2527): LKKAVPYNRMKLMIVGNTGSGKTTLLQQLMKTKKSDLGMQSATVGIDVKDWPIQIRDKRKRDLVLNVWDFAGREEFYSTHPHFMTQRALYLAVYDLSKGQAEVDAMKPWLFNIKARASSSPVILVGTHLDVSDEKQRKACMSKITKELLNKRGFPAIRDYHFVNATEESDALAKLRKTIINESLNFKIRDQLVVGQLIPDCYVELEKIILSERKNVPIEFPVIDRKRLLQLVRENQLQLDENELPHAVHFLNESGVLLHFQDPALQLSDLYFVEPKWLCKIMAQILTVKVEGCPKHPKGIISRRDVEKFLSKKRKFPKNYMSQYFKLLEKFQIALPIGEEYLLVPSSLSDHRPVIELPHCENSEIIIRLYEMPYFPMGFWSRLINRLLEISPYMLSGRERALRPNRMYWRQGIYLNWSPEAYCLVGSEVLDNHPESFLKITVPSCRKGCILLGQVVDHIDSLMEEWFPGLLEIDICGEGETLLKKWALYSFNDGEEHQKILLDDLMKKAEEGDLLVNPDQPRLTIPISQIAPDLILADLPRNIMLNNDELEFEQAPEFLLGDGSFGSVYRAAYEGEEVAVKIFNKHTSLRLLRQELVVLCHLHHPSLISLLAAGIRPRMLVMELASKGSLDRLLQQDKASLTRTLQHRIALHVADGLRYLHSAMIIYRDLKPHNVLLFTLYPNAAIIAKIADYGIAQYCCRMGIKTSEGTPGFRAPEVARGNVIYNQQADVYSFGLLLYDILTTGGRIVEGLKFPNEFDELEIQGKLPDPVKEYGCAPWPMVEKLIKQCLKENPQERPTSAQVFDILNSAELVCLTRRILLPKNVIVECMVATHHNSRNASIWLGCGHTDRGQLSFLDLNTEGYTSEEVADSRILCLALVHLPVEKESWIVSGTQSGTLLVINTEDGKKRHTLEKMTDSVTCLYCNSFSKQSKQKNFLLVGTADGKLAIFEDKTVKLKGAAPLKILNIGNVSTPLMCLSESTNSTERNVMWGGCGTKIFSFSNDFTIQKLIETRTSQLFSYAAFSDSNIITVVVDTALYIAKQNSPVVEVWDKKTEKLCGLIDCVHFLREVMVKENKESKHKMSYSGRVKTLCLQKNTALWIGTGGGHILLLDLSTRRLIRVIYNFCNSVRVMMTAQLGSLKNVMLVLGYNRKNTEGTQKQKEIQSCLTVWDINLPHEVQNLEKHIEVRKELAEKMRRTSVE
# Measurement Protocol: Adapta assay, inhibition of wildtype human LRRK2 kinase fragment with LRRKtide
# Assay type: biochemical
# Assay Context: 100 microM ATP; read-out: LRRK2 inhibitory potency (essentially receptor-limited)
pIC50: −log10 of the molar value.
Parameter Measured: pIC50

Give the value of pIC50 reported for the following: COC(=O)[C@@]1(N)CC2OC1(C)n1c3ccccc3c3c4c(c5c6ccccc6n2c5c31)C(=O)NC4 (some centres unmarked)
≥ 9.00

Give the value of pIC50 reported for the following: CNC(=O)[C@@]1(N)CC2OC1(C)n1c3ccccc3c3c4c(c5c6ccccc6n2c5c31)C(=O)NC4 (some centres unmarked)
≥ 9.00
